- measured_target: Yer184c (UniProt P39961)
- Sequence: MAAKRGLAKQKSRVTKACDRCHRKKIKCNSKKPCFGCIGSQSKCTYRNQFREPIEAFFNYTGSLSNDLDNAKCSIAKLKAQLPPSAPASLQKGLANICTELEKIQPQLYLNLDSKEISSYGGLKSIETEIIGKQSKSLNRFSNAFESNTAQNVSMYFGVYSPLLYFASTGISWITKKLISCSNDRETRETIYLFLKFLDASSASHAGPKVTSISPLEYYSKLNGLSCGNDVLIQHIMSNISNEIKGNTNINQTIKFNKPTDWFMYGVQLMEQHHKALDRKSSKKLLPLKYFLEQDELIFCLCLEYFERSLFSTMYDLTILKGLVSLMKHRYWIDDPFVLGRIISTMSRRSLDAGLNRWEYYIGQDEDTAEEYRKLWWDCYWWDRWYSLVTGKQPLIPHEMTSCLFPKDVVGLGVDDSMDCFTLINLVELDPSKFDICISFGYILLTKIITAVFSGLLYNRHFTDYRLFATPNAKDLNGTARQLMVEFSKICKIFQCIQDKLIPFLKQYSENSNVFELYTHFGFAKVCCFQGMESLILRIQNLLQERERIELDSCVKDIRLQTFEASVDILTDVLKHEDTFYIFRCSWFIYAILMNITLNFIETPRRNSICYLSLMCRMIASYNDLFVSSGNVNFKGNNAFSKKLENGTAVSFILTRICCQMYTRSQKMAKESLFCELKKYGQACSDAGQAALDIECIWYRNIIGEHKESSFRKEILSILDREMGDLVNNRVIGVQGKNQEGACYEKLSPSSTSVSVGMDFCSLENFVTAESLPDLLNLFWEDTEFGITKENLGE
- method_notes: PBM E-score (8-mer binding enrichment) (E-score (-0.5 to 0.5)); higher = stronger / more preferred TF binding
- assay_conditions: protein concentration: 100 nM; construct: GST-full length
Over roughly 33,000 sequences, “E-score (-0.5 to 0.5)” has its median near -0.016; the highest 2% begin near 0.3. Only a selection was taken, and the highest values are over-represented in it overall.
Decision: PBM E-score >= 0.07 yields T, all other cases yield F.

Worked cases, answers included:
# sequence_data, classification
rows = [
    ("ATTTGTGA", "T"),
    ("ACGAATGA", "T"),
    ("ACTTATAA", "T"),
    ("TATAATAA", "T"),
    ("TAATATTA", "T"),
    ("GTCCGAAC", "T"),
    ("AAATATTA", "T"),
    ("CTTGACAA", "T"),
]

Evaluate GTCCGAAA : PBM E-score at minimum 0.07?
T

Evaluate CATAATTA : PBM E-score at minimum 0.07?
T

Evaluate CACACTGC : PBM E-score at minimum 0.07?
F

Evaluate GAAGTAAC : PBM E-score at minimum 0.07?
T

Evaluate AACAGAAC : PBM E-score at minimum 0.07?
T

Evaluate CACTAGTA : PBM E-score at minimum 0.07?
F

Evaluate TTCCGAAA : PBM E-score at minimum 0.07?
T

Evaluate TCTATGAA : PBM E-score at minimum 0.07?
T

Evaluate CCGAATGA : PBM E-score at minimum 0.07?
T

Evaluate CGGAATGC : PBM E-score at minimum 0.07?
T

Provenance of the data: the supplement of paper PMC3334620
